- SYSTEM NAME: canine CD3 on canine T cells (canine PBMC) (canine, UniProt P27597 22-202)
- Sequence (P27597 22-202 limits assumed, chain 1 of 3): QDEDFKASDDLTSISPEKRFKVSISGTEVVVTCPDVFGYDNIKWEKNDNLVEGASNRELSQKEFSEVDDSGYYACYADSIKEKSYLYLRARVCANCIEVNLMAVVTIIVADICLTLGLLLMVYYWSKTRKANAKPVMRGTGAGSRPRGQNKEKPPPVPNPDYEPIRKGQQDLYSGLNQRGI
- Sequence (chain, as listed by the source limits assumed, chain 2 of 3): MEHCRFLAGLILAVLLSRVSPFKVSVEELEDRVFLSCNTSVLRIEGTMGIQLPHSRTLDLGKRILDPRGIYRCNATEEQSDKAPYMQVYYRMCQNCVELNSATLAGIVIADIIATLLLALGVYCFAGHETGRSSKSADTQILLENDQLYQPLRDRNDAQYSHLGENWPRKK
- Sequence (chain, as listed by the source limits assumed, chain 3 of 3): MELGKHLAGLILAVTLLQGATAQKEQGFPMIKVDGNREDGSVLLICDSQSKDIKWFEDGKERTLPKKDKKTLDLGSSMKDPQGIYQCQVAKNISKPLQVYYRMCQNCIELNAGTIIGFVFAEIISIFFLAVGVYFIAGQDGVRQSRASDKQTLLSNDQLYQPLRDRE
- ASSAY NAME: cell-based or functional assay

BINDER: PMX183 (monospecific anti-canine CD3, canine IgG-B effector function deficient Fc) (antibody, V domains shown) VH: ELTLQESGPGLVKPSQTLSLTCVVSGGSVTNSYYWNWIRQRPGRELEWMGYWTGGTKYNPAFQGRISISADTAKNQFSLQLTSMTTEDTAVYYCARDRDRRVPHAYGYWGQGTLVTVSS VL: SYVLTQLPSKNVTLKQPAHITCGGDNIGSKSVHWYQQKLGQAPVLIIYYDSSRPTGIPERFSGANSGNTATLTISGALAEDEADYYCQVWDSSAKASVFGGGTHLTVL
Ki67 Proliferation, Day 9, IS: 1.99
--
BINDER: PMX163 (monospecific anti-canine CD3, canine IgG-B effector function deficient Fc) (antibody, V domains shown) VH: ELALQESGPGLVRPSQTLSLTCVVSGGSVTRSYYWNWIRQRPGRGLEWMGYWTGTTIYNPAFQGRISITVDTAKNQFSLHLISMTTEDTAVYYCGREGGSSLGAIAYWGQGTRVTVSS VL: SYVLTQLPSKNVTLKQPAHITCGGDNIGSKSVHWYQQKLGQAPVLIIYYDSSRPTGIPERFSGANSGNTATLTISGALAEDEADYYCQVWDSSAKAAVFGGGTHLTVL
Ki67 Proliferation, Day 9, IS: 0.71
--
BINDER: PMX158 (monospecific anti-canine CD3, canine IgG-B effector function deficient Fc) (antibody, V domains shown) VH: ELTLQESGPGLVKPSQTLSLTCVVSGGSVTRSYYWNWIRQRPGRGLEWMGYWTGTTNYNPAFQGRISITADTAKNQCSLQLSSMTTEDTAVYYCAREGGKLLGAFGHWGQGTLVTVSS VL: SYVLTQLPSKNVTLKQPAHITCGGDKIGSKSVHWYQQKLGQAPVLIIYYDSSRLTGIPERFSGANSGNTATLTISGALAEDEADYYCQVWDSSAKASVFGGGTHLTVL
Ki67 Proliferation, Day 9, IS: 0.45
--
BINDER: PMX194 (monospecific anti-canine CD3, canine IgG-B effector function deficient Fc) (antibody, V domains shown) VH: EVQLVESGGDLVKPGGSLRLSCVASGFTFSNYHMSWVRQAPGKGLQWVAYSNSGRMSTDYADAVKGRFTISRDNAKNTLYLQMNSLRPEDTAVYYCATVIYGLFDYWGQGTLVTVSS VL: DIVMTQTPLSLSVSPGEPASISCKASQSLLYSNGNTYLYWFRQKPGQSPQRLIYKVSKRDSGVPDRFSGSGSGTDFTLRIRRVEADDAGVYYCGQGTQDPYTFSQGTKLEIK
Ki67 Proliferation, Day 9, IS: 1.49
